- TARGET: T1, TTF1 (thyroid transcription factor 1) (Ciona intestinalis, UniProt O96738 O96738:1-477)
- T1 sequence: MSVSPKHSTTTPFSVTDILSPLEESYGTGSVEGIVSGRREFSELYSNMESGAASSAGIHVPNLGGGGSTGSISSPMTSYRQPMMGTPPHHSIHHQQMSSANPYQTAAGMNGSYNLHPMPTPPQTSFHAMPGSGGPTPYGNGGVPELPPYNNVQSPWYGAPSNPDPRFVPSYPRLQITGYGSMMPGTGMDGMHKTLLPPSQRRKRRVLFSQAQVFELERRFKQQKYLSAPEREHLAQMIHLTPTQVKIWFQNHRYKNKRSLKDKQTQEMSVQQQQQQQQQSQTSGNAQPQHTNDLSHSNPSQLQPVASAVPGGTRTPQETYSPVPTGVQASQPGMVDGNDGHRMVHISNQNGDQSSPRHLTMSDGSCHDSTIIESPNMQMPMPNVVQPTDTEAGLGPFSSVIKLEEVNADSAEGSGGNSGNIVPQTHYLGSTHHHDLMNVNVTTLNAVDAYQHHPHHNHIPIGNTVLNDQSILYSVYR
- ASSAY_INFO: SPR; kinetic global fit 1:1; steady-state Kd 65.6 nM; HBS-P pH 7.5, 150 mM NaCl
- CONDITION_SET: tags: N-terminal His6 plus factor Xa site (pNHis vector), E. coli; label: biotin
- Procedure: The affinity, as described by the KD, was determined by a global fit using the kinetic simultaneous kₐ/kd model, assuming Langmuir (1:1) binding. BIAcore surface plasmon resonance. The affinity of the aptamers for their protein targets was measured using surface plasmon resonance (SPR) with a BIAcore X instrument (BIAcore, Piscataway, N.J.). […] The steady-state affinity was determined from curve-fitting to a plot of the Req values, derived from sensorgrams fitted locally, against the concentrations.
READOUT_NAME: Kd (nM)

[[record]]
binder = "TTF1 Aptamer C (ssDNA) DNA: GGTATTGAGGGTCGCATCTGGCTAGTGGGTAAGGGGCGGGAGGGTGACAGGGCGATCCGATGGCTCTAACTCTCCTCT"
readout_name = "Kd"
unit = "nM"
measured_value = 32.5


Entry source: patent US20050142582
